- ASSAY: BSK_hDFCGF_Proliferation: Cell Proliferation Assessment in the BioMAP Diversity Plus: hDFCGF Assay (AID 2283059);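 also: curves fitted for both rise and fall of signal versus DMSO baseline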
- EXPERIMENTAL CONDITIONS: primary human foreskin fibroblasts
The source made the active and inactive calls. The calls were made as follows: active = hit-call score of the fitted dose curve at least 0.9, where 1 is the maximum; inactive = score below 0.9.
Classes used: active, inactive

[
  {
    "COMPOUND": "CCOC(=O)C(C)OC(=O)c1cc(Oc2ccc(C(F)(F)F)cc2Cl)ccc1[N+](=O)[O-] (stereo unspecified)",
    "CLASS": "inactive"
  },
  {
    "COMPOUND": "Cc1nc(N(C)C)nc(OC(=O)N(C)C)c1C",
    "CLASS": "inactive"
  },
  {
    "COMPOUND": "COc1ccc(-c2ccccc2)cc1NNC(=O)OC(C)C",
    "CLASS": "inactive"
  },
  {
    "COMPOUND": "Cc1ccc(N=CN(C)C=Nc2ccc(C)cc2C)c(C)c1",
    "CLASS": "active"
  },
  {
    "COMPOUND": "COCC(=O)N(c1c(C)cccc1C)C(C)C(=O)OC (stereo unspecified)",
    "CLASS": "inactive"
  },
  {
    "COMPOUND": "N#Cc1c(Cl)cccc1Cl",
    "CLASS": "inactive"
  }
]
